Measured Potency EC50 (nM) of individual entries
Target: T1, human ferroportin (SLC40A1) fused in frame with GFP, stably expressed in HEK293 cells (human, UniProt Q9NP59 1-571)
T1 sequence (looked up): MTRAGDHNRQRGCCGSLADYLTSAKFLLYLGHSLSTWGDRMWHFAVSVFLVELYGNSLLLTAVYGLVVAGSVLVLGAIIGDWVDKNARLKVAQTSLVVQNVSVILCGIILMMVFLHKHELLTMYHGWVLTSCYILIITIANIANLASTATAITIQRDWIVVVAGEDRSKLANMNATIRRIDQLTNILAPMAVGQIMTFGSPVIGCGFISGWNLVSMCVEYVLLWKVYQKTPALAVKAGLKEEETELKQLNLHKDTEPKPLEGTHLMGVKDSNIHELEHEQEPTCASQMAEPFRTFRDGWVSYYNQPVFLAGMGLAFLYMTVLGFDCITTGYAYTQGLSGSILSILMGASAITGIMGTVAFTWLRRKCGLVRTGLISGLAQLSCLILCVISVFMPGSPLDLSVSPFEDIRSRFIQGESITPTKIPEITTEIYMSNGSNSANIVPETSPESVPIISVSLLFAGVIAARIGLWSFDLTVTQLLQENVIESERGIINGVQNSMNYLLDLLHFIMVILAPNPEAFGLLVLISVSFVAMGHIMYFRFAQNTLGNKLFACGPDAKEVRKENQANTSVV
Experiment: cell-based or functional assay
Bridge positions count the residues as written; N and C are the ends. Square brackets hold non-standard residues; d marks the D form. * marks the point of attachment. Isovaleryl = CC(C)CC(=O)*; βAla = NCCC(=O)O; Sar = CNCC(=O)O
endpoint-name: Potency EC50 (nM)

{"binder": "H-DTHFRCIIFGPRSKGWVCK-NH2 (disulfide 6-18 (inferred)) [Hy-DTHFRCIIFGPRSKGWVCK-NH2]", "endpoint-name": "Potency EC50 (nM)", "obs-value": "> 1000 nM"}
{"binder": "H-DTHFPIAIFGPRSKGWVAM-NH2 [Hy-DTHFPIAIFGPRSKGWVAM-NH2]", "endpoint-name": "Potency EC50 (nM)", "obs-value": "> 10000 nM"}
{"binder": "H-THFPCIIFGPRSKGWVCK-NH2 (disulfide 5-17 (inferred)) [Hy-THFPCIIFGPRSKGWVCK-NH2]", "endpoint-name": "Potency EC50 (nM)", "obs-value": "> 10000 nM"}
{"binder": "H-DTHFGCIIFGPRSKGWVCK-NH2 (disulfide 6-18 (inferred)) [Hy-DTHFGCIIFGPRSKGWVCK-NH2]", "endpoint-name": "Potency EC50 (nM)", "obs-value": "> 1000 nM"}
{"binder": "Isovaleryl-THFPCIIFGPRSKGWVCK-NH2 (disulfide 5-17 (inferred)) [Isovaleric acid-THFPCIIFGPRSKGWVCK-NH2]", "endpoint-name": "Potency EC50 (nM)", "obs-value": "> 10000 nM"}
{"binder": "Isovaleryl-HFPCIIFGPRSKGWVCK-NH2 (disulfide 4-16 (inferred)) [Isovaleric acid-HFPCIIFGPRSKGWVCK-NH2]", "endpoint-name": "Potency EC50 (nM)", "obs-value": "> 10000 nM"}
{"binder": "H-HFPCIIFGPRSKGWVCK-NH2 (disulfide 4-16 (inferred)) [Hy-HFPCIIFGPRSKGWVCK-NH2]", "endpoint-name": "Potency EC50 (nM)", "obs-value": "> 10000 nM"}
{"binder": "H-DTHFKCIIFGPRSKGWVCK-NH2 (disulfide 6-18 (inferred)) [Hy-DTHFKCIIFGPRSKGWVCK-NH2]", "endpoint-name": "Potency EC50 (nM)", "obs-value": "> 1000 nM"}
{"binder": "H-DTHF[Sar]CIIFGPRSKGWVCK-NH2 (disulfide 6-18 (inferred)) [Hy-DTHF-[Sarc]-CIIFGPRSKGWVCK-NH2]", "endpoint-name": "Potency EC50 (nM)", "obs-value": "> 1000 nM"}
{"binder": "H-DTHF[βAla]CIIFGPRSKGWVCK-NH2 (disulfide 6-18 (inferred)) [Hy-DTHF-[β-Ala]-CIIFGPRSKGWVCK-NH2]", "endpoint-name": "Potency EC50 (nM)", "obs-value": "> 1000 nM"}
{"binder": "H-DTHFPCRRFGPRSKGWVC-NH2 (disulfide 6-18 (inferred)) [Hy-DTHFPCRRFGPRSKGWVC-NH2]", "endpoint-name": "Potency EC50 (nM)", "obs-value": "> 10000 nM"}
